- Tested on: NCI-H2405
- ASSAY DETAILS: relative viability (nuclei count vs DMSO), 5 days (fraction); higher = more cells survive
- RECORDED CONDITIONS: first compound 8 µM
Response field label takes class 1 when relative viability is strictly below 0.6 and class 0 in all other cases.

Examples with answers:
MOLECULE	CLASSIFICATION
Nc1cccc2c1CN(C1CCC(=O)NC1=O)C2=O (stereo not drawn) [Lenalidomide] + Nc1ncn([C@H]2C[C@H](O)[C@@H](CO)O2)c(=O)n1 [Decitabine] (partner 2 µM)	class 0
Nc1cccc2c1CN(C1CCC(=O)NC1=O)C2=O (stereo not drawn) [Lenalidomide] + Cc1nc(Nc2ncc(C(=O)Nc3c(C)cccc3Cl)s2)cc(N2CCN(CCO)CC2)n1 [Dasatinib] (partner 0.075 µM)	class 1
Nc1cccc2c1CN(C1CCC(=O)NC1=O)C2=O (stereo not drawn) [Lenalidomide] + O=C(c1cc(Cc2n[nH]c(=O)c3ccccc23)ccc1F)N1CCN(C(=O)C2CC2)CC1 [Olaparib] (partner 8 µM)	class 0
Nc1cccc2c1CN(C1CCC(=O)NC1=O)C2=O (stereo not drawn) [Lenalidomide] + Nc1nc2[nH]cc(CCc3ccc(C(=O)N[C@@H](CCC(=O)O)C(=O)O)cc3)c2c(=O)[nH]1 [Pemetrexed] (partner 0.2 µM)	class 0
Nc1cccc2c1CN(C1CCC(=O)NC1=O)C2=O (stereo not drawn) [Lenalidomide] + Cc1cc(Nc2cc(N3CCN(C)CC3)nc(Sc3ccc(NC(=O)C4CC4)cc3)n2)n[nH]1 [Tozasertib] (partner 0.1 µM)	class 0
Nc1cccc2c1CN(C1CCC(=O)NC1=O)C2=O (stereo not drawn) [Lenalidomide] + CS(=O)(=O)N1CCN(Cc2cc3nc(-c4cccc5[nH]ncc45)nc(N4CCOCC4)c3s2)CC1 [Pictilisib] (partner 1 µM)	class 1

Kindly review the next molecule as well.
Is relative viability strictly under 0.6 for the entry Nc1cccc2c1CN(C1CCC(=O)NC1=O)C2=O (stereo not drawn) [Lenalidomide] + N=C(N)NC(=N)NCCc1ccccc1 [Phenformin] (partner 250 µM) ?
class 1

* * *

- Tested on: NCI-H2342
- ASSAY DETAILS: relative viability (nuclei count vs DMSO), 5 days (fraction); higher = more cells survive
- RECORDED CONDITIONS: first compound 0.8 µM
# relative viability listing for each entry below
Give a plain numeric answer without units written out.

Please review the entries below; each comes with its answer.
COMPOUND	ASSAY RESULT
Nc1cccc2c1CN(C1CCC(=O)NC1=O)C2=O (centres undefined) [Lenalidomide] + Nc1nc2[nH]cc(CCc3ccc(C(=O)N[C@@H](CCC(=O)O)C(=O)O)cc3)c2c(=O)[nH]1 [Pemetrexed] (partner 0.2 µM)	0.774
Nc1cccc2c1CN(C1CCC(=O)NC1=O)C2=O (centres undefined) [Lenalidomide] + Nc1ncn([C@H]2C[C@H](O)[C@@H](CO)O2)c(=O)n1 [Decitabine] (partner 2 µM)	0.678

Quick one: relative viability of Nc1cccc2c1CN(C1CCC(=O)NC1=O)C2=O (centres undefined) [Lenalidomide] + Cc1cc(Nc2cc(N3CCN(C)CC3)nc(Sc3ccc(NC(=O)C4CC4)cc3)n2)n[nH]1 [Tozasertib] (partner 0.1 µM) ?
0.49

Which measured relative viability value corresponds to Nc1cccc2c1CN(C1CCC(=O)NC1=O)C2=O (centres undefined) [Lenalidomide] + O=C(c1cc(Cc2n[nH]c(=O)c3ccccc23)ccc1F)N1CCN(C(=O)C2CC2)CC1 [Olaparib] (partner 8 µM) ?
0.415

* * *

# relative viability per entry
- Test system: NCI-H1792
- ASSAY DETAILS: relative viability (nuclei count vs DMSO), 5 days (fraction); higher = more cells survive
- RECORDED CONDITIONS: first compound 0.06325 µM

Example cases with answers are listed next.
MOLECULE	ASSAY RESULT
CCNC(=O)c1noc(-c2cc(C(C)C)c(O)cc2O)c1-c1ccc(CN2CCOCC2)cc1 [Luminespib] + CC(=O)c1c(C)c2cnc(Nc3ccc(N4CCNCC4)cn3)nc2n(C2CCCC2)c1=O [Palbociclib] (partner 0.5 µM)	0.316
CCNC(=O)c1noc(-c2cc(C(C)C)c(O)cc2O)c1-c1ccc(CN2CCOCC2)cc1 [Luminespib] + O=C(c1cc(Cc2n[nH]c(=O)c3ccccc23)ccc1F)N1CCN(C(=O)C2CC2)CC1 [Olaparib] (partner 8 µM)	0.0723
CCNC(=O)c1noc(-c2cc(C(C)C)c(O)cc2O)c1-c1ccc(CN2CCOCC2)cc1 [Luminespib] + Cc1nc(NC(=O)N2CCC[C@H]2C(N)=O)sc1-c1ccnc(C(C)(C)C(F)(F)F)c1 [Alpelisib] (partner 2 µM)	0.308
CCNC(=O)c1noc(-c2cc(C(C)C)c(O)cc2O)c1-c1ccc(CN2CCOCC2)cc1 [Luminespib] + Nc1ncn([C@H]2C[C@H](O)[C@@H](CO)O2)c(=O)n1 [Decitabine] (partner 2 µM)	0.078

GET /values?readout=relative viability&item= CCNC(=O)c1noc(-c2cc(C(C)C)c(O)cc2O)c1-c1ccc(CN2CCOCC2)cc1 [Luminespib] + COc1cccc2cc(-c3nc([C@H]4CC[C@H](C(=O)O)CC4)n4ncnc(N)c34)[nH]c12 [OSI-027] (partner 0.5 µM)
0.26

* * *

// reported relative viability for each item listed
- Tested on: NCI-H2126
- ASSAY DETAILS: relative viability (nuclei count vs DMSO), 5 days (fraction); higher = more cells survive
- RECORDED CONDITIONS: first compound 0.253 µM
Give your answer as a number; write no unit.

COMPOUND	relative viability
Nc1cccc2c1CN(C1CCC(=O)NC1=O)C2=O (stereo not drawn) [Lenalidomide] + Cc1nc(Nc2ncc(C(=O)Nc3c(C)cccc3Cl)s2)cc(N2CCN(CCO)CC2)n1 [Dasatinib] (partner 0.075 µM)	0.661
Nc1cccc2c1CN(C1CCC(=O)NC1=O)C2=O (stereo not drawn) [Lenalidomide] + CC1(C)CCC(c2ccc(Cl)cc2)=C(CN2CCN(c3ccc(C(=O)NS(=O)(=O)c4ccc(N[C@H](CCN5CCOCC5)CSc5ccccc5)c(S(=O)(=O)C(F)(F)F)c4)cc3)CC2)C1 [Navitoclax] (partner 0.5 µM)	0.798

What is its relative viability for NCI-H2126? Entry: Nc1cccc2c1CN(C1CCC(=O)NC1=O)C2=O (stereo not drawn) [Lenalidomide] + Cc1cc(Nc2cc(N3CCN(C)CC3)nc(Sc3ccc(NC(=O)C4CC4)cc3)n2)n[nH]1 [Tozasertib] (partner 0.1 µM)
0.873

* * *

- System: PC-14
- ASSAY DETAILS: relative viability (nuclei count vs DMSO), 5 days (fraction); higher = more cells survive
- RECORDED CONDITIONS: first compound 0.2 µM
// relative viability lookup, one value per entry
Enter a number only.

Some entries whose results are on file:
COMPOUND	TEST SYSTEM	PARAMETER MEASURED	ASSAY RESULT
CCNC(=O)c1noc(-c2cc(C(C)C)c(O)cc2O)c1-c1ccc(CN2CCOCC2)cc1 [Luminespib] + N=C(N)NC(=N)NCCc1ccccc1 [Phenformin] (partner 250 µM)	PC-14	relative viability	0.0788
Cc1csc(=NC2CCCCC2)n1/N=C/c1ccc(O)c(O)c1O [MIM1] + CC(=O)c1c(C)c2cnc(Nc3ccc(N4CCNCC4)cn3)nc2n(C2CCCC2)c1=O [Palbociclib] (partner 0.5 µM)	PC-14	relative viability	0.475
Cc1csc(=NC2CCCCC2)n1/N=C/c1ccc(O)c(O)c1O [MIM1] + CC(=O)Nc1cccc(-n2c(=O)n(C3CC3)c(=O)c3c(Nc4ccc(I)cc4F)n(C)c(=O)c(C)c32)c1 [Trametinib] (partner 0.02 µM)	PC-14	relative viability	0.663
CCNC(=O)c1noc(-c2cc(C(C)C)c(O)cc2O)c1-c1ccc(CN2CCOCC2)cc1 [Luminespib] + Nc1ncn([C@H]2C[C@H](O)[C@@H](CO)O2)c(=O)n1 [Decitabine] (partner 2 µM)	PC-14	relative viability	0.0786
CCNC(=O)c1noc(-c2cc(C(C)C)c(O)cc2O)c1-c1ccc(CN2CCOCC2)cc1 [Luminespib] + Cc1cc(Nc2cc(N3CCN(C)CC3)nc(Sc3ccc(NC(=O)C4CC4)cc3)n2)n[nH]1 [Tozasertib] (partner 0.1 µM)	PC-14	relative viability	0.0697

We next turn to a different compound, shown below.
Please give the measured relative viability for this compound: CCNC(=O)c1noc(-c2cc(C(C)C)c(O)cc2O)c1-c1ccc(CN2CCOCC2)cc1 [Luminespib] + Cc1nc(NC(=O)N2CCC[C@H]2C(N)=O)sc1-c1ccnc(C(C)(C)C(F)(F)F)c1 [Alpelisib] (partner 2 µM)
0.0816

* * *

- System: NCI-H1395
- ASSAY DETAILS: relative viability (nuclei count vs DMSO), 5 days (fraction); higher = more cells survive
- RECORDED CONDITIONS: first compound 0.253 µM
relative viability vs 0.7: less than gives rule met; not less than gives rule not met.

COMPOUND	TEST SYSTEM	CLASSIFICATION
Nc1cccc2c1CN(C1CCC(=O)NC1=O)C2=O (stereo not given) [Lenalidomide] + Nc1nc2[nH]cc(CCc3ccc(C(=O)N[C@@H](CCC(=O)O)C(=O)O)cc3)c2c(=O)[nH]1 [Pemetrexed] (partner 0.2 µM)	NCI-H1395	rule not met
Nc1cccc2c1CN(C1CCC(=O)NC1=O)C2=O (stereo not given) [Lenalidomide] + CS(=O)(=O)CCNCc1ccc(-c2ccc3ncnc(Nc4ccc(OCc5cccc(F)c5)c(Cl)c4)c3c2)o1 [Lapatinib] (partner 2 µM)	NCI-H1395	rule not met
Nc1cccc2c1CN(C1CCC(=O)NC1=O)C2=O (stereo not given) [Lenalidomide] + Cc1nc(NC(=O)N2CCC[C@H]2C(N)=O)sc1-c1ccnc(C(C)(C)C(F)(F)F)c1 [Alpelisib] (partner 2 µM)	NCI-H1395	rule not met

Field: next compound
Take the compound Nc1cccc2c1CN(C1CCC(=O)NC1=O)C2=O (stereo not given) [Lenalidomide] + N=C(N)NC(=N)NCCc1ccccc1 [Phenformin] (partner 250 µM) and say whether its relative viability is less than 0.7.
rule met
